System: 454973-116-R2-J3-PDC spheroids, viability, % test/control
testProtocol: Anticancer human tumor 454973-116-R2-J3-PDC patient-derived pancreatic carcinoma cell line growth inhibition [GQUAD]
experimentalParameters: curve of first compound; second compound 0.316 µM; spheroids with HUVEC and MSC
pIC50: −log10 of the molar value.
quantityMeasured: pIC50

INSERT INTO results (compound, result) VALUES
  ('CC(=O)O[C@H]1C(=O)[C@@]2(C)[C@H]([C@H](OC(=O)c3ccccc3)[C@]3(O)C[C@H](OC(=O)[C@H](O)[C@@H](NC(=O)c4ccccc4)c4ccccc4)C(C)=C1C3(C)C)[C@]1(OC(C)=O)CO[C@@H]1C[C@@H]2O + Cc1cnc(CNC(=O)c2c(=O)c3ccc(N4CCCN(C)CC4)nc3n3c2sc2ccccc23)cn1', '> 7.50'),
  ('Nc1ccn(C2OC(CO)C(O)C2(F)F)c(=O)n1 (configuration not stated) + Cc1cnc(CNC(=O)c2c(=O)c3ccc(N4CCCN(C)CC4)nc3n3c2sc2ccccc23)cn1', '> 7.50');

----------
Tested on: 454973-116-R2-J3-PDC spheroids, viability, % test/control
testProtocol: Anticancer human tumor 454973-116-R2-J3-PDC cell line growth inhibition [GQUAD]; active = viability on the fitted dose curve at most 10% of control; inactive = the rest;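 further: spheroids exposed to compounds for seven days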
experimentalParameters: second compound 3.16 µM; first compound 10 µM; spheroids with HUVEC and MSC
Possible outcomes: active, inactive

INSERT INTO measurements (molecule, labelvalue) VALUES
  ('C=CC(=O)N1CCN(c2nc(=O)n(-c3c(C)ccnc3C(C)C)c3nc(-c4c(O)cccc4F)c(F)cc23)C(C)C1 (stereo unspecified) + CN(C)c1ccc(Nc2c3ccc(NC(=O)CCN4CCCC4)cc3nc3cc(NC(=O)CCN4CCCC4)ccc23)cc1', 'inactive'),
  ('COc1cc(C2c3cc4c(cc3C(OC3OC5COC(C)OC5C(O)C3O)C3COC(=O)C23)OCO4)cc(OC)c1O (stereo unspecified) + CN(C)c1ccc(Nc2c3ccc(NC(=O)CCN4CCCC4)cc3nc3cc(NC(=O)CCN4CCCC4)ccc23)cc1', 'inactive'),
  ('O=C(c1cc(Cc2n[nH]c(=O)c3ccccc23)ccc1F)N1CCN(C(=O)C2CC2)CC1 + CN(C)c1ccc(Nc2c3ccc(NC(=O)CCN4CCCC4)cc3nc3cc(NC(=O)CCN4CCCC4)ccc23)cc1', 'inactive'),
  ('O=c1[nH]cc(F)c(=O)[nH]1 + Cc1cnc(CNC(=O)c2c(=O)c3ccc(N4CCCN(C)CC4)nc3n3c2sc2ccccc23)cn1', 'inactive'),
  ('CC(C)(O)C1CCC(Nc2ccc3ncc(-c4cccc(C(F)(F)F)c4)n3n2)CC1 (stereo unspecified) + Cc1[nH]c2ccc(F)cc2c1-c1nc2c3cccnc3c3ncccc3c2[nH]1', 'inactive'),
  ('Cc1cccc(N(C)C(=O)C2C(O)CCN2c2nc(C)cc(C(F)(F)F)c2C#N)c1 (stereo unspecified) + CN(C)c1ccc(Nc2c3ccc(NC(=O)CCN4CCCC4)cc3nc3cc(NC(=O)CCN4CCCC4)ccc23)cc1', 'inactive'),
  ('CC(C)(O)C1CCC(Nc2ccc3ncc(-c4cccc(C(F)(F)F)c4)n3n2)CC1 (stereo unspecified) + CN(C)c1ccc(Nc2c3ccc(NC(=O)CCN4CCCC4)cc3nc3cc(NC(=O)CCN4CCCC4)ccc23)cc1', 'inactive'),
  ('O=c1[nH]cc(F)c(=O)[nH]1 + Cc1[nH]c2ccc(F)cc2c1-c1nc2c3cccnc3c3ncccc3c2[nH]1', 'inactive'),
  ('COc1ccc([C@@H](O)c2cc(-c3ncnc4cc(N5CCOCC5)ccc34)c(F)cc2Cl)nn1 + Cc1[nH]c2ccc(F)cc2c1-c1nc2c3cccnc3c3ncccc3c2[nH]1', 'inactive'),
  ('CC(C)n1c(=O)n(C)c2cnc3cc(F)c(-c4ccc(OCCCN5CCCCC5)nc4)cc3c21 + Cc1cnc(CNC(=O)c2c(=O)c3ccc(N4CCCN(C)CC4)nc3n3c2sc2ccccc23)cn1', 'inactive'),
  ('COc1cccc2c1C(=O)c1c(O)c3c(c(O)c1C2=O)CC(O)(C(=O)CO)CC3OC1CC(N)C(O)C(C)O1 (stereo unspecified) + Cc1cnc(CNC(=O)c2c(=O)c3ccc(N4CCCN(C)CC4)nc3n3c2sc2ccccc23)cn1', 'active');

----------
Test system: 454973-116-R2-J3-PDC spheroids, viability, % test/control
testProtocol: Anticancer human tumor 454973-116-R2-J3-PDC cell line growth inhibition [GQUAD];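 further: spheroids exposed to compounds for seven days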;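 on viability, T/C: 100% = DMSO vehicle control viability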
experimentalParameters: second compound 3.16 µM; first compound 0.316 µM; stronger effect = lower value; spheroids with HUVEC and MSC
quantityMeasured: viability, T/C (%)

INSERT INTO results (compound, quantitymeasured, recordednumber) VALUES
  ('Nc1ccn(C2OC(CO)C(O)C2(F)F)c(=O)n1 (stereo unspecified) + Cc1cnc(CNC(=O)c2c(=O)c3ccc(N4CCCN(C)CC4)nc3n3c2sc2ccccc23)cn1', 'viability, T/C', 30.5),
  ('O=C(NO)c1cnc(N2CCN(S(=O)(=O)c3ccc4ccccc4c3)CC2)nc1 + CN(C)c1ccc(Nc2c3ccc(NC(=O)CCN4CCCC4)cc3nc3cc(NC(=O)CCN4CCCC4)ccc23)cc1', 'viability, T/C', 29.4),
  ('Cc1cccc(N(C)C(=O)C2C(O)CCN2c2nc(C)cc(C(F)(F)F)c2C#N)c1 (stereo unspecified) + Cc1[nH]c2ccc(F)cc2c1-c1nc2c3cccnc3c3ncccc3c2[nH]1', 'viability, T/C', 97.4),
  ('COc1cc(C2c3cc4c(cc3C(OC3OC5COC(C)OC5C(O)C3O)C3COC(=O)C23)OCO4)cc(OC)c1O (stereo unspecified) + Cc1[nH]c2ccc(F)cc2c1-c1nc2c3cccnc3c3ncccc3c2[nH]1', 'viability, T/C', 98.7),
  ('COc1cc(C2c3cc4c(cc3C(OC3OC5COC(C)OC5C(O)C3O)C3COC(=O)C23)OCO4)cc(OC)c1O (stereo unspecified) + CN(C)c1ccc(Nc2c3ccc(NC(=O)CCN4CCCC4)cc3nc3cc(NC(=O)CCN4CCCC4)ccc23)cc1', 'viability, T/C', 80.5),
  ('CCc1c2c(nc3ccc(O)cc13)-c1cc3c(c(=O)n1C2)COC(=O)[C@]3(O)CC + Cc1cnc(CNC(=O)c2c(=O)c3ccc(N4CCCN(C)CC4)nc3n3c2sc2ccccc23)cn1', 'viability, T/C', 0.55),
  ('C=CCn1c(=O)c2cnc(Nc3ccc(N4CCN(C)CC4)cc3)nc2n1-c1cccc(C(C)(C)O)n1 + CN(C)c1ccc(Nc2c3ccc(NC(=O)CCN4CCCC4)cc3nc3cc(NC(=O)CCN4CCCC4)ccc23)cc1', 'viability, T/C', 61.9),
  ('COc1cccc2c1C(=O)c1c(O)c3c(c(O)c1C2=O)CC(O)(C(=O)CO)CC3OC1CC(N)C(O)C(C)O1 (stereo unspecified) + Cc1[nH]c2ccc(F)cc2c1-c1nc2c3cccnc3c3ncccc3c2[nH]1', 'viability, T/C', 27.6),
  ('CCCS(=O)(=O)Nc1ccc(F)c(C(=O)c2c[nH]c3ncc(-c4ccc(Cl)cc4)cc23)c1F + Cc1cnc(CNC(=O)c2c(=O)c3ccc(N4CCCN(C)CC4)nc3n3c2sc2ccccc23)cn1', 'viability, T/C', 72.3),
  ('C=CCn1c(=O)c2cnc(Nc3ccc(N4CCN(C)CC4)cc3)nc2n1-c1cccc(C(C)(C)O)n1 + Cc1[nH]c2ccc(F)cc2c1-c1nc2c3cccnc3c3ncccc3c2[nH]1', 'viability, T/C', 51.8),
  ('CC(C)(O)C1CCC(Nc2ccc3ncc(-c4cccc(C(F)(F)F)c4)n3n2)CC1 (stereo unspecified) + Cc1cnc(CNC(=O)c2c(=O)c3ccc(N4CCCN(C)CC4)nc3n3c2sc2ccccc23)cn1', 'viability, T/C', 63.9);

----------
Test system: 454973-116-R2-J3-PDC spheroids, viability, % test/control
testProtocol: Anticancer human tumor 454973-116-R2-J3-PDC cell line growth inhibition [GQUAD];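 further: spheroids exposed to compounds for seven days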;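 on viability, T/C: 100% = DMSO vehicle control viability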
experimentalParameters: second compound 0.0316 µM; first compound 1 µM; stronger effect = lower value; spheroids with HUVEC and MSC
The label is yes for viability, T/C below 80% and no for viability, T/C equal to or exceeding 80%.

INSERT INTO measurements (compound, labelvalue) VALUES
  ('Nc1ccn(C2OC(CO)C(O)C2(F)F)c(=O)n1 (stereo not given) + CN(C)c1ccc(Nc2c3ccc(NC(=O)CCN4CCCC4)cc3nc3cc(NC(=O)CCN4CCCC4)ccc23)cc1', 'yes'),
  ('COc1ncnc(C2CC2)c1-c1ncc2cnn(Cc3ccc(-c4nc(C(F)(F)F)cn4C(C)C)cc3)c2n1 + CN(C)c1ccc(Nc2c3ccc(NC(=O)CCN4CCCC4)cc3nc3cc(NC(=O)CCN4CCCC4)ccc23)cc1', 'no'),
  ('CC(C)(O)C1CCC(Nc2ccc3ncc(-c4cccc(C(F)(F)F)c4)n3n2)CC1 (stereo not given) + Cc1cnc(CNC(=O)c2c(=O)c3ccc(N4CCCN(C)CC4)nc3n3c2sc2ccccc23)cn1', 'yes'),
  ('COc1cc(C2c3cc4c(cc3C(OC3OC5COC(C)OC5C(O)C3O)C3COC(=O)C23)OCO4)cc(OC)c1O (stereo not given) + Cc1cnc(CNC(=O)c2c(=O)c3ccc(N4CCCN(C)CC4)nc3n3c2sc2ccccc23)cn1', 'yes'),
  ('C=CC(=O)N1CCN(c2nc(=O)n(-c3c(C)ccnc3C(C)C)c3nc(-c4c(O)cccc4F)c(F)cc23)C(C)C1 (stereo not given) + CN(C)c1ccc(Nc2c3ccc(NC(=O)CCN4CCCC4)cc3nc3cc(NC(=O)CCN4CCCC4)ccc23)cc1', 'no');
